Attribution: paper PMC8150020

- method summary: experimental determination of log Pm/w using HMLC
- Assay type: physicochemical
- assay context: HMLC, pH 5, 40°C; read-out: log P (experimental log Pm/w) pH 5
measurement label: chromatographic logP

# structure string, measurement label, result
measured = [
    ("c1cnc(N2CCN(Cc3ccc4c(c3)OCO4)CC2)nc1", "chromatographic logP", 1.1),
]

====

- method summary: experimental determination of log Pm/w using HMLC
- Assay type: physicochemical
- assay context: HMLC, pH 6, 40°C; read-out: log P (experimental log Pm/w) pH 6

# compound, chromatographic logP
records = [
    ("c1cnc(N2CCN(Cc3ccc4c(c3)OCO4)CC2)nc1 [PRB]", 1.65),
]
